This document collects IC50 values reported for eIF4E (Homo sapiens, UniProt P06730).

| compound | IC50 |
| --- | --- |
| O=C(O)C(Cc1ccc(O)cc1)=NNc1nc(-c2cccc([N+](=O)[O-])c2)cs1 [KY-A6] | ~5 µM |
| O=C(O)C(Cc1ccccc1[N+](=O)[O-])NNc1nc(-c2ccc(Cl)c(Cl)c2)cs1 (centres unmarked) [KY-720] | ~4 µM |

----------
System: CRL2351 human breast cancer
Assay: SRB assay (inhibition of cell proliferation)
Type: cell-based
Conditions: Homo sapiens, CRL2351 human breast cancer cells; summary table; read-out: IC50 [μM} CRL2351
Excerpt: A sulfur rhodamine B (SRB) assay was used to determine the extent of inhibition of cell proliferation as a measure of the anti-cancer activity of compounds of the present disclosure. The reagent SRB binds to cellular proteins and absorbs light proportionally to the cellular protein content, which is a surrogate marker for the number of cells. […]
Each record here notes measured IC50.

| compound | target.or.system | IC50 |
| --- | --- | --- |
| [N-]=[N+]=NCCCCCOc1ccc(-c2csc(N/N=C(/Cc3ccccc3[N+](=O)[O-])C(=O)O)n2)cc1 [KH-168S] | CRL2351 human breast cancer | > 20 µM |
| COc1ccc(-c2nc(NN=C(Cc3ccccc3[N+](=O)[O-])C(=O)O)sc2-c2ccc(-n3cc(-c4cccc(O)c4)nn3)cc2)cc1 [KY-441] | CRL2351 human breast cancer | > 20 µM |
| O=C(O)/C(=N\Nc1nc(-c2ccc(Cl)c(Cl)c2)cs1)c1c[nH]c2ccccc12 [KY-689] | CRL2351 human breast cancer | > 20 µM |
| [N-]=[N+]=NC/C(=N\Nc1nc(-c2ccc(Cl)c(Cl)c2)cs1)C(=O)O [KY-757-p] | CRL2351 human breast cancer | > 20 µM |
| COc1ccc(-c2cn(-c3ccc(-c4sc(NN=C(Cc5ccccc5[N+](=O)[O-])C(=O)O)nc4-c4ccc(OC)cc4)cc3)nn2)cc1 [KY-445] | CRL2351 human breast cancer | > 20 µM |
| O=C(O)C(=NNc1nc(-c2ccc(Cl)c(Cl)c2)cs1)c1cccc([N+](=O)[O-])c1 (stereo in doubt) [KY-788-Z] | CRL2351 human breast cancer | > 20 µM |
| O=C(O)/C(Cc1c(Br)cccc1[N+](=O)[O-])=N/Nc1nc(-c2ccc(Cl)c(Cl)c2)cs1 [RYF-339F] | CRL2351 human breast cancer | < 0.54 µM |
| COCc1cn(-c2ccc(-c3sc(NN=C(Cc4ccccc4[N+](=O)[O-])C(=O)O)nc3-c3ccc(OC)cc3)cc2)nn1 [KY-443A16-19] | CRL2351 human breast cancer | > 20 µM |
| COc1ccc(-c2nc(NN=C(Cc3ccccc3[N+](=O)[O-])C(=O)O)sc2-c2ccc(-n3cc(CO)nn3)cc2)cc1 [KY-383] | CRL2351 human breast cancer | > 20 µM |
| COc1ccc(-c2nc(N/N=C(/Cc3ccccc3[N+](=O)[O-])C(=O)O)sc2-c2cccc(-n3cc(CO)nn3)c2)cc1 [KY-467S] | CRL2351 human breast cancer | > 20 µM |
| O=C(O)C(Cc1ccccc1[N+](=O)[O-])=NNc1nc(-c2cc(Br)cc(Br)c2O)cs1 [KH-102BII] | CRL2351 human breast cancer | 9 µM |
| COc1ccc(-c2sc(N/N=C(/Cc3ccccc3[N+](=O)[O-])C(=O)O)nc2-c2ccc(C3CCCCC3)cc2)cc1 [KY-612S] | CRL2351 human breast cancer | 11 µM |
| COc1ccc(-c2sc(NN=C(Cc3ccccc3[N+](=O)[O-])C(=O)O)nc2-c2ccc(OC)c(OC)c2)cc1 [KY-343PR] | CRL2351 human breast cancer | > 20 µM |
| [N-]=[N+]=NCCCCOc1ccc(-c2csc(NN=C(Cc3ccccc3[N+](=O)[O-])C(=O)O)n2)cc1 [KH-113s] | CRL2351 human breast cancer | 12 µM |
| COC(=O)C1CN(c2nc(-c3ccc(Cl)c(Cl)c3)cs2)CCN1c1ccccc1[N+](=O)[O-] (stereo not drawn) [RYF-273] | CRL2351 human breast cancer | 0.54 µM |
